test: in vitro; details: human, hela cells, % viability

>  <compound>
CCCOc1nccnc1N1CCNCC1 [CBK001839G]

>  <viability at 28.5 h, 10 µM / %>
82.4

$$$$
>  <compound>
Cc1nnc(CN(C)C2CCN(Cc3ccc4c(c3)CCC4)C2)n1C (stereo not drawn)

>  <viability at 28.5 h, 10 µM / %>
104

$$$$
>  <compound>
Cn1ccnc1C1(O)CC2CCC(C1)N2C(=O)c1cccc(Cl)c1 (stereo not drawn)

>  <viability at 28.5 h, 10 µM / %>
86

$$$$

###

assay: in vitro; details: human, hela cells, % viability
The label 1 is reserved for viability at 28.5 h, 10 µM strictly under 90%; 0 covers values equal to or above it.

>  <sample.smiles>
Cc1ccnc(Sc2nc3c(c(=O)[nH]c(=O)n3C)n2CCCc2ccccc2)n1

>  <group>
1

$$$$
>  <sample.smiles>
C=CCn1c2cc(C)sc2c2cnn(CC(=O)NC3CC3)c(=O)c21

>  <group>
1

$$$$
>  <sample.smiles>
CCOC(=O)/C(=N/O)C(=O)c1c[nH]c2ccccc12

>  <group>
0

$$$$
>  <sample.smiles>
CCc1nc2ccc(C(=O)Nc3cccc(NS(C)(=O)=O)c3)cn2c1N(C)CCCc1ccccc1

>  <group>
0

$$$$
>  <sample.smiles>
CCOC(=O)c1cc(Cl)cnc1C1CCN(C(=O)C2CC2)CC1

>  <group>
0

$$$$
>  <sample.smiles>
COc1ccc(C[C@@H]2NC(=O)[C@H]3CN(C(=O)c4cccn4C)CCN3C2=O)cc1

>  <group>
0

$$$$
